Target: RAC-PK PH domain (Homo sapiens, UniProt P31749)
Construct: pGEX-PH131 contains an in-frame fusion of amino acids 1-131 of human RAC-PKα with GST; GST (N, cleaved yes)
Sequence (P31749 1-131): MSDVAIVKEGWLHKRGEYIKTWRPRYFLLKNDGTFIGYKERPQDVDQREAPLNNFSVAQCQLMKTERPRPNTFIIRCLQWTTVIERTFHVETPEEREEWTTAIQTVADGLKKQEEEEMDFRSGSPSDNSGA
Experiment: Quenching of the intrinsic Trp fluorescence of the PH domain by phospholipids and inositol phosphates
Conditions: calculated from reduction of 345nm fluorescence (excited at 290nm); 10mM Hepes/NaOH, pH 7.0, 10mM MgCl2, 25°C; read-out: Dissociation Constant
pKd: −log10 of the molar value.
PARAMETER: pKd

> print(dat)
                                   compound  observed.result
1  O=P(O)(O)OC1C(O)C(O)C(O)C(O)C1O (stereo not shown) [Ins (2) monophosphate]             5.08
2  O=P(O)(O)OC1C(O)C(O)C(OP(=O)(O)O)C(OP(=O)(O)O)C1O (stereo not shown) [Ins (1,4,5) trisphosphate]             5.92
3  O=P(O)(O)OC1C(O)C(O)C(O)C(O)C1O (stereo not shown) [Ins (1) monophosphate]             5.15
4  O=P(O)(O)OC1C(O)C(O)C(OP(=O)(O)O)C(O)C1O (stereo not shown) [Ins (1,4) bisphosphate]             6.05
